Values compiled from patent US10329309B2.

system: primary human fibroblasts derived from IPF patients (LL29 cells), α-smooth muscle actin (αSMA); assay: Inhibition of the fibrotic process: TGF-β1-treated primary human fibroblasts from IPF patients, αSMA staining; type: cell-based; conditions: Fibroblast, 96 h, LL29 fibroblasts from IPF patients, TGF-β1 20 ng/mL, 4 days, inhibition of fibrotic process
pEC50: −log10 of the molar value.
Below, each of the molecules is paired with its reported pEC50 value.

molecule="CCNCc1cncc(-c2ccc3[nH]nc(-c4nc5c(-c6ccoc6)ccnc5[nH]4)c3n2)c1 [Compound 314]" observedmeasurement="< 5.00"
molecule="Fc1cccc(-c2ccnc3[nH]c(-c4n[nH]c5ccc(-c6cncc(OCCN7CCCC7)c6)nc45)nc23)c1 [Compound 514]" observedmeasurement="< 5.00"

Could you now consider this next molecule?
Fill blank: measured pEC50 of the molecule O=C(Nc1cncc(-c2ccc3[nH]nc(-c4nc5c(N6CCCCC6)ccnc5[nH]4)c3n2)c1)C1CC1 [Compound 188] is ____.
< 5.00

====

tested on: primary human fibroblasts derived from IPF patients (LL29 cells), α-smooth muscle actin (αSMA); assay: Inhibition of the fibrotic process: TGF-β1-treated primary human fibroblasts from IPF patients, αSMA staining; type: cell-based; conditions: Fibroblast, 96 h, LL29 fibroblasts from IPF patients, TGF-β1 20 ng/mL, 4 days, inhibition of fibrotic process
Recorded measurements of pEC50, one per entry
// pEC50: -log10(molar conc.)

compound="CC(C)CC(=O)Nc1cncc(-c2ccc3[nH]nc(-c4nc5c(-c6cccc(F)c6)ccnc5[nH]4)c3n2)c1 [Compound 2]" metricname=pEC50 observedmeasurement=6.53
compound="c1cncc(-c2ccc3[nH]nc(-c4nc5c(-c6cccnc6)ccnc5[nH]4)c3n2)c1 [Compound 88]" metricname=pEC50 observedmeasurement=6.13
compound="COc1cccc(-c2ccnc3[nH]c(-c4n[nH]c5ccc(-c6cncc(OC7CCNCC7)c6)nc45)nc23)c1 [Compound 1025]" metricname=pEC50 observedmeasurement=5.54

Using the record for c1cc(-c2ccnc3[nH]c(-c4n[nH]c5ccc(-c6cncc(OC7CCNCC7)c6)nc45)nc23)ccn1 [Compound 576] , report its pEC50.
5.39

What would you report for O=C(Nc1cncc(-c2ccc3[nH]nc(-c4nc5cccnc5[nH]4)c3n2)c1)C1CCCCC1 [Compound 275] ?
5.40

Moving on to the next compound: CCC(=O)Nc1cncc(-c2ccc3[nH]nc(-c4nc5c(N6CCCCC6)ccnc5[nH]4)c3n2)c1 [Compound 169]
5.28

What about CN(C)CCOc1cncc(-c2ccc3[nH]nc(-c4nc5c(-c6cccs6)ccnc5[nH]4)c3n2)c1 [Compound 707] ?
5.61

What would you report for c1ccc(CNCc2cncc(-c3ccc4[nH]nc(-c5nc6c(-c7cccnc7)ccnc6[nH]5)c4n3)c2)cc1 [Compound 108] ?
5.05

Please do the same for COc1cccc(-c2ccnc3[nH]c(-c4n[nH]c5ccc(-c6cncc(NC(=O)C7CCCCC7)c6)nc45)nc23)c1 [Compound 1012] as well.
5.93

Please answer likewise for Fc1ccc(-c2ccnc3[nH]c(-c4n[nH]c5ccc(-c6cncnc6)nc45)nc23)cc1 [Compound 55]
7.20

Next compound up: O=C(Nc1cncc(-c2ccc3[nH]nc(-c4nc5c(-c6cccs6)ccnc5[nH]4)c3n2)c1)C1CC1 [Compound 356]
5.31

====

test system: primary human mesenchymal stem cells (hMSCs); experiment: Induction of chondrogenesis in primary human mesenchymal stem cells (nodule imaging, Rhodamine B/Nile Red); type: cell-based; settings: hMSC chondrogenesis, TGF-β3 as positive control, read-out: Max. Activity as % TGF-β3 activity
metricName: Emax (%)
Enter your answer as a number in %; do not include the unit.

smilesinput=CN(C)CC(=O)Nc1cncc(-c2ccc3[nH]nc(-c4nc5c(-c6cccc(F)c6)ccnc5[nH]4)c3n2)c1 assayedtarget="primary human mesenchymal stem cells (hMSCs)" resultunits=% observedmeasurement=72

What Emax appears in the records for this compound with primary human mesenchymal stem cells (hMSCs)? CCCCC(=O)Nc1cncc(-c2ccc3[nH]nc(-c4nc5c(-c6cc(F)cc(NCCN(C)C)c6)ccnc5[nH]4)c3n2)c1
71

What do you get for Oc1cncc(-c2ccc3[nH]nc(-c4nc5c(-c6cccc(F)c6)ccnc5[nH]4)c3n2)c1 ?
59

====

tested on: primary human fibroblasts derived from IPF patients (LL29 cells), α-smooth muscle actin (αSMA); assay: Inhibition of the fibrotic process: TGF-β1-treated primary human fibroblasts from IPF patients, αSMA staining; format: cell-based; details: Fibroblast, 96 h, LL29 fibroblasts from IPF patients, TGF-β1 20 ng/mL, 4 days, inhibition of fibrotic process
pEC50: −log10 of the molar value.
metricName: pEC50

molecule="CCCC(=O)Nc1cncc(-c2ccc3[nH]nc(-c4nc5c(-c6ccncc6)ccnc5[nH]4)c3n2)c1 [Compound 129]" metricname=pEC50 observedmeasurement="< 5.00"

Name the recorded pEC50 for O=C(Nc1cncc(-c2ccc3[nH]nc(-c4nc5c(-c6ccccn6)ccnc5[nH]4)c3n2)c1)c1ccccc1 [Compound 151] .
< 5.00

Queued: CS(=O)(=O)NCc1cc(F)cc(-c2ccnc3[nH]c(-c4n[nH]c5ccc(-c6cncnc6)nc45)nc23)c1 [Compound 503]
< 5.00

====

tested on: primary human fibroblasts derived from IPF patients (LL29 cells), α-smooth muscle actin (αSMA); test: Inhibition of the fibrotic process: TGF-β1-treated primary human fibroblasts from IPF patients, αSMA staining; format: cell-based; settings: Fibroblast, 96 h, LL29 fibroblasts from IPF patients, TGF-β1 20 ng/mL, 4 days, inhibition of fibrotic process
Reported pEC50 values follow for various compounds
// pEC50 here means minus log10 of the molar concentration (mol/L)

Entry under review: Fc1cccc(-c2ccnc3[nH]c(-c4n[nH]c5ccc(-c6cncc(CN7CCC(F)(F)C7)c6)nc45)nc23)c1 . Reported pEC50?
6.46

Try this compound too: COc1cncc(-c2ccc3[nH]nc(-c4nc5c(-c6cccc(F)c6)ccnc5[nH]4)c3n2)c1
5.80

Please answer likewise for O=C(Nc1cncc(-c2ccc3[nH]nc(-c4nc5c(-c6ccc(F)cc6)ccnc5[nH]4)c3n2)c1)C1CCC1
5.86

Same question for Fc1cccc(-c2ccnc3[nH]c(-c4n[nH]c5ccc(C6CCNCC6)nc45)nc23)c1 please.
5.31

Check c1cnc2[nH]c(-c3n[nH]c4ccc(-c5cncc(OC6CCNCC6)c5)nc34)nc2c1 too.
5.20

====

Overview of reported EC50 across a group of compounds:
test system: primary human fibroblasts derived from IPF patients (LL29 cells), α-smooth muscle actin (αSMA); assay: Inhibition of the fibrotic process: TGF-β1-treated primary human fibroblasts from IPF patients, αSMA staining; format: cell-based; conditions: Fibroblast, 96 h, LL29 fibroblasts from IPF patients, TGF-β1 20 ng/mL, 4 days, inhibition of fibrotic process

compound="c1cnc2[nH]c(-c3n[nH]c4ccc(-c5cn[nH]c5)nc34)nc2c1 [Compound 651]" metricname=EC50 observedmeasurement="> 10 µM"
compound="Cc1cn(-c2ccnc3[nH]c(-c4n[nH]c5ccc(-c6cncc(NC(=O)C(C)(C)C)c6)nc45)nc23)cn1 [Compound 204]" metricname=EC50 observedmeasurement="> 10 µM"
compound="Oc1cncc(-c2ccc3[nH]nc(-c4nc5cccnc5[nH]4)c3n2)c1 [Compound 661]" metricname=EC50 observedmeasurement="> 10 µM"
compound="Cc1ccncc1-c1ccc2[nH]nc(-c3nc4c(-c5ccncc5)ccnc4[nH]3)c2n1 [Compound 117]" metricname=EC50 observedmeasurement="> 10 µM"
compound="CS(=O)(=O)NCc1cc(F)cc(-c2ccnc3[nH]c(-c4n[nH]c5ccc(-c6cncc(NC(=O)c7ccccc7)c6)nc45)nc23)c1 [Compound 487]" metricname=EC50 observedmeasurement="> 10 µM"
compound="O=C(Cc1ccccc1)Nc1cncc(-c2ccc3[nH]nc(-c4nc5cccnc5[nH]4)c3n2)c1 [Compound 262]" metricname=EC50 observedmeasurement="> 10 µM"

# get_value(readout='EC50', item= CCCC(=O)Nc1cncc(-c2ccc3[nH]nc(-c4nc5c(-c6cc(F)cc(CNS(C)(=O)=O)c6)ccnc5[nH]4)c3n2)c1 [Compound 493] )
> 10 µM

Same thing, different compound: c1cncc(-c2ccnc3[nH]c(-c4n[nH]c5ccc(-c6cncc(OC7CCCCC7)c6)nc45)nc23)c1 [Compound 559]
5.18 µM

Now try COc1cncc(-c2ccc3[nH]nc(-c4nc5c(-c6ccoc6)ccnc5[nH]4)c3n2)c1 [Compound 692] .
1.32 µM

Another compound to check: c1ccc(-c2ccc3[nH]nc(-c4nc5cccnc5[nH]4)c3n2)nc1 [Compound 280]
3.88 µM
